Molecular target: PolQ ATPase enzyme (1-894) (Homo sapiens (Human), UniProt O75417)
Sequence (O75417 1-894): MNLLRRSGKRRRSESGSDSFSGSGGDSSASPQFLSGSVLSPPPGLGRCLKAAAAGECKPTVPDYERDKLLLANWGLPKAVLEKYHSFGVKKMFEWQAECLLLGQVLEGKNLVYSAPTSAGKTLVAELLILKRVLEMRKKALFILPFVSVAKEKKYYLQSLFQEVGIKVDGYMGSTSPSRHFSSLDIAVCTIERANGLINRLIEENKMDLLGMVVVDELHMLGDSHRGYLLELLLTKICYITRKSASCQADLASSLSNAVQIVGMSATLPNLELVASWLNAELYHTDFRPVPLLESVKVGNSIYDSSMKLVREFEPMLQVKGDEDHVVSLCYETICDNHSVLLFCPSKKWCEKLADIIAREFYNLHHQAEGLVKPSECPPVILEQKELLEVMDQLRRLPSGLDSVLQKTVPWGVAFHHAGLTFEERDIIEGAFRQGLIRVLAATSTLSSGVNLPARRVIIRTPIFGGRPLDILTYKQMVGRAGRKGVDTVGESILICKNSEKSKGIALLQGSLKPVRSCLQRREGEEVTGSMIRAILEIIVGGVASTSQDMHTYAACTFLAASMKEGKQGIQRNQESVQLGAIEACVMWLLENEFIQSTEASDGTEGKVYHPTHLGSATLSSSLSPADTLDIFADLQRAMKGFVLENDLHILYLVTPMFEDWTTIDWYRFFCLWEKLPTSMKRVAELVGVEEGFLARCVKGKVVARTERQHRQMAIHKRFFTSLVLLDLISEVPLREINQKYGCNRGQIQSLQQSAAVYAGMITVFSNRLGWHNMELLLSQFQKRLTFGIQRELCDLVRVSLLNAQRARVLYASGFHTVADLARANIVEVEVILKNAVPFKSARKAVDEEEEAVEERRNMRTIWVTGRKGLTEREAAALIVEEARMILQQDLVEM
Experiment: Polθ ATPase enzymatic assay (0.5 nM enzyme concentration), ADP-Glo
Assay type: biochemical
Settings: average IC50; 0.5 nM PolQ ATPase enzyme (1-894)
Mark true only when IC50 stays strictly below 2 nM. Values equal to the cut-off are false.

COc1cnc(C(F)F)cc1-c1cc(OCC2CC2)ncc1C(=O)Nc1nnc(C#CC2CC2)s1 :: false

stdin: Lab note: IC50 threshold 2 nM. Does this compound come in strictly under it? COc1cnc(C(F)F)cc1-c1cc(N2CC(C)(C)CC2=O)ncc1C(=O)Nc1nnc(C#CC2CC2)s1
stdout: false

stdin: Please do the same for COc1ccc(C#N)cc1-c1cnccc1C(=O)Nc1nnc(C2C[C@H]2c2ccc(C#N)cc2)s1 (mixture of isomers) as well.
stdout: false

stdin: Please do the same for COc1cnc(C(F)F)cc1-c1cc(C(=O)N(C)C)ccc1C(=O)Nc1ncc(C#CC2CC2)s1 as well.
stdout: false

All values here come from patent US20250026748A1.
